Assay: pKa of thiol groups, spectrophotometric titration
Format: physicochemical
Details: 50 μM peptide in phosphate buffered saline, titrated with 1 M NaOH, absorbance at 240 nm
Numbered stars: 1 amine (or outer) side, 2 acyl side, 3 side chain; on linkers, the order of the positions; unused ones are H or OH. Square brackets hold non-standard residues; d marks the D form. Peptide text beside a SMILES is read from it. γGlu = O=C(O)[C@H](CCC(=O)[*:2])N[*:1]
The entries below come with measured pKa of thiol group values attached.
// keep it numeric: no unit symbol after the value

Observe how each entry below is paired with its result.
INSERT INTO measurements (compound, result) VALUES
  ('COc1ccc(C[C@H](N)C(=O)N[C@@H](CCC(=O)O)C(=O)N[C@@H](CS)C(=O)NCC(=O)O)cc1 [UPF17, Tyr(Me)-Glu-Cys-Gly] (H-Y(Me)ECG-OH)', 9.4),
  ('N[C@@H](CCC(=O)O)C(=O)N[C@@H](CS)C(=O)NCC(=O)O [α-GSH] (H-Glu-Cys-Gly-OH)', 9.1),
  ('N[C@@H](CCC(=O)N[C@@H](CS)C(=O)NCC(=O)O)C(=O)O [GSH, γ-L-Glu-L-Cys-Gly, reference compound]', 9.0);

I am curious: what pKa of thiol group value has been reported for COc1ccc(C[C@H](N)C(=O)N[C@@H](CCC(=O)N[C@@H](CS)C(=O)NCC(=O)O)C(=O)O)cc1 [UPF1, Tyr(Me)-γ-Glu-Cys-Gly] (H-Y(Me)[γGlu]CG-OH) ? 9.3
